# assayed_system: c-MET (Homo sapiens)
# Sequence (P08581 25-1390): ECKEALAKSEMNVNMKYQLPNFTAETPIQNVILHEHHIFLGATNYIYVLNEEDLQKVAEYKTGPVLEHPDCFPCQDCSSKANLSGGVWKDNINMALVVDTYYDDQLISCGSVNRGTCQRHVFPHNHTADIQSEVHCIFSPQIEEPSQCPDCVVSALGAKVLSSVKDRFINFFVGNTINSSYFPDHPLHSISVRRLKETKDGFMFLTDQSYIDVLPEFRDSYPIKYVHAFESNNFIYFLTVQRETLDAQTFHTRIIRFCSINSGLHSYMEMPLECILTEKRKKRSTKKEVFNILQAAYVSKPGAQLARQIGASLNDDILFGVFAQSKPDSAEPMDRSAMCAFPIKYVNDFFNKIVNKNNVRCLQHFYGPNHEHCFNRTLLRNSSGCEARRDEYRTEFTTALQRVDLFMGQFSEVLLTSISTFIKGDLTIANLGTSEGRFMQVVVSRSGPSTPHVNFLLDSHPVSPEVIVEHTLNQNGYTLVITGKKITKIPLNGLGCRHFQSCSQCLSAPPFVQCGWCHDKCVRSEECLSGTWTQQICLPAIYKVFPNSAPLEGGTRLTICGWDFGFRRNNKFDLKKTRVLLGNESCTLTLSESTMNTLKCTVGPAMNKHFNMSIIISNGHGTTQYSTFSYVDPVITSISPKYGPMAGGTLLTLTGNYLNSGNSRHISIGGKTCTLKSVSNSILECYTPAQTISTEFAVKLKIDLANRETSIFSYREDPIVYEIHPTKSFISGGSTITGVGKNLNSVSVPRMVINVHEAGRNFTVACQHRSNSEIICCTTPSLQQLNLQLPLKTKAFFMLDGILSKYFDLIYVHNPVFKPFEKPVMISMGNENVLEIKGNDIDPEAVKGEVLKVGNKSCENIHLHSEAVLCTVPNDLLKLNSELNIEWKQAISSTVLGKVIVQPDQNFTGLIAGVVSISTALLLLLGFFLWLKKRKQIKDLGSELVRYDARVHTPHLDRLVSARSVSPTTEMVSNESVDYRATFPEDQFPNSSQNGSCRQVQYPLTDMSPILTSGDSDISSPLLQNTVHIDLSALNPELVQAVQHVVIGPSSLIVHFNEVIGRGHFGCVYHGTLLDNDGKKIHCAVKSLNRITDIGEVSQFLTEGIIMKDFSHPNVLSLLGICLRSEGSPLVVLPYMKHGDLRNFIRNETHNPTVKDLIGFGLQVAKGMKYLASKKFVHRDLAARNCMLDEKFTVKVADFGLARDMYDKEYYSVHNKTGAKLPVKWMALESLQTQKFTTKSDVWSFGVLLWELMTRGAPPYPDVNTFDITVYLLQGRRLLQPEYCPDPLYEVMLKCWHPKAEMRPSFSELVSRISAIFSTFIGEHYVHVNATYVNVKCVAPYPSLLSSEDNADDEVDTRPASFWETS
# assay_overview: Enzymatic assay (ADP-Glo kinase reaction), c-MET
# Type: biochemical
# reported_conditions: 10 μM ATP, 60 min, ADP-GLO luminescence
reported_endpoint: IC50

compound	reported_endpoint	result
Cc1noc(C)c1-c1c(Oc2ccc(NC(=O)c3cn(C(C)C)c(=O)n(-c4ccc(F)cc4)c3=O)cc2F)ccnc1N [Example 11]	IC50	< 10000 nM
CCCn1cc(C#Cc2c(Oc3ccc(NC(=O)c4cn(C(C)C)c(=O)n(-c5ccc(F)cc5)c4=O)cc3F)ccnc2N)cn1 [Example 13]	IC50	< 1000 nM
CC(C)n1cc(C(=O)Nc2ccc(Oc3ccnc(N)c3C#CCN3CCOCC3)c(F)c2)c(=O)n(-c2ccc(F)cc2)c1=O [Example 24]	IC50	< 10 nM
COCCN1CCN(C(C)(C)C#Cc2c(Oc3ccc(NC(=O)c4cn(C(C)C)c(=O)n(-c5ccc(F)cc5)c4=O)cc3F)ccnc2N)CC1 [Example 20]	IC50	< 10 nM
CC(C)n1cc(C(=O)Nc2ccc(Oc3ccnc(N)c3C#CCN3CCN(C)CC3)c(F)c2)c(=O)n(-c2ccc(F)cc2)c1=O [Example 26]	IC50	< 10 nM
CC(C)n1cc(C(=O)Nc2ccc(Oc3ccnc(N)c3C#CC(C)(C)N3CCOCC3)c(F)c2)c(=O)n(-c2ccc(F)cc2)c1=O [Example 25]	IC50	< 10 nM
C=CCn1cc(C(=O)Nc2ccc(Oc3ccnc(N)c3C#CCN3CCOCC3)c(F)c2)c(=O)n(CC=C)c1=O [Example 67]	IC50	< 100 nM
CN(C)C(=O)Cn1cc(C(=O)Nc2ccc(Oc3ccnc(N)c3C#CC(C)(C)N3CCNCC3)c(F)c2)c(=O)n(-c2ccc(F)cc2)c1=O [Example 35]	IC50	< 10000 nM
Cn1nc(C(=O)Nc2ccc(Oc3ccnc(N)c3C#CCN3CCOCC3)c(F)c2)c(=O)n(-c2ccc(F)cc2)c1=O [Example 49]	IC50	< 1000 nM
Cc1nc(Cn2cc(C(=O)Nc3ccc(Oc4ccnc(N)c4C#CC(C)(C)N4CCNCC4)c(F)c3)c(=O)n(-c3ccc(F)cc3)c2=O)cs1 [Example 41]	IC50	< 100 nM
CC(C)(C#Cc1c(Oc2ccc(NC(=O)c3cn(C4CCOCC4)c(=O)n(-c4ccc(F)cc4)c3=O)cc2F)ccnc1N)N1CCOCC1 [Example 55]	IC50	< 100 nM
